- tested_system: Uridine 5'-monophosphate synthase (Homo sapiens)
- Sequence (P11172 whole entry): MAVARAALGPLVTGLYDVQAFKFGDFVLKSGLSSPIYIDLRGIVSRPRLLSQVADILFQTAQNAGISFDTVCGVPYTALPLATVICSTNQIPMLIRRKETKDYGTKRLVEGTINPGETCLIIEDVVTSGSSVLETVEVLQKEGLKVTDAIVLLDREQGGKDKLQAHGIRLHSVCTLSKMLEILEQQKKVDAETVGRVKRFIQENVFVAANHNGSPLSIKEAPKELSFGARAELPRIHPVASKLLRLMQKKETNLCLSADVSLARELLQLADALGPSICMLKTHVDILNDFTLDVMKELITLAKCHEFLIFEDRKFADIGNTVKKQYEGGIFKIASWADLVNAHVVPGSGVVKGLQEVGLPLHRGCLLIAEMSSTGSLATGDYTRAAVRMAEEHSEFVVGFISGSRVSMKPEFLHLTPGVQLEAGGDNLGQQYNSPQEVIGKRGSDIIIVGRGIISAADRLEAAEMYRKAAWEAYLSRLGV
readout_kind: pKi
Numbers only, as −log10 of the molar value.

Examples from the recorded data:
q: I have this molecule here, O=[N+]([O-])c1ccc(O[C@@H]2O[C@H](COP(=O)(O)O)C(O)C2O)cc1 (stereo partly specified) , and I need its recorded pKi.
a: 7.39

q: I have this molecule here, `O=C(O)c1[nH]c(=O)[nH]c(=O)c1CN1CCCC1` , and I need its recorded pKi.
a: 6.60

q: I have this molecule here, N#Cc1cc(=O)[nH]c(=O)n1C[C@@H]1N[C@H](CO)C(O)C1O (stereo partly specified) , and I need its recorded pKi.
a: 6.44

q: I have this molecule here, O=C1c2cc(=O)[nH]c(=O)n2C[C@H]2C(O)C(O)[C@@H](CO)N12 (stereo partly specified) , and I need its recorded pKi.
a: 6.96

q: I have this molecule here, N#Cc1cc(=O)[nH]c(=O)n1C[C@@H]1N[C@H](COP(=O)(O)O)C(O)C1O (stereo partly specified) , and I need its recorded pKi.
a: 6.85

Continuing:
q: I have this molecule here, `O=[N+]([O-])c1ccc(CCNC(CO)CO)cc1` , and I need its recorded pKi.
a: 6.92
